Values compiled from patent US8809342B2.

Test Target: human glucagon receptor (Homo sapiens, UniProt P47871)
Construct: expressed in transfected cells; host or cells: CHO-K1 cells, stably transfected
Sequence (P47871 26-477): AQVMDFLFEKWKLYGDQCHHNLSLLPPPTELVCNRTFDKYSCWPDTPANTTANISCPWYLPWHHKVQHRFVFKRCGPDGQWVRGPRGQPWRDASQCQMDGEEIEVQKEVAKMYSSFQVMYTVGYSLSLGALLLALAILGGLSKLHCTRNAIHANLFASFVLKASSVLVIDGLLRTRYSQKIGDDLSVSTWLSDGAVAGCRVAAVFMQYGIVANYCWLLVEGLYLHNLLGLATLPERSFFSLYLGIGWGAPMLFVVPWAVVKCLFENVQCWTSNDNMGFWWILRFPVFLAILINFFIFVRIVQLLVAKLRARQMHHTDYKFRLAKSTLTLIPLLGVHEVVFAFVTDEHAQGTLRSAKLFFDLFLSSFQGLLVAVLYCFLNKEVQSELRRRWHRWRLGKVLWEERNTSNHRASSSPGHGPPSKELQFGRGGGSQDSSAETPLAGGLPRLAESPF
Test Method Notes: Glucagon cAMP assay (Cisbio cAMP detection); note: 100 pM glucagon challenge
Type: cell-based
Rule: Kb under 200 nM gives 0.0, otherwise 1.0.

Please review the following examples before continuing.
[
  {
    "Compound": "CC(C)CC(Nc1ccc(C(=O)NCCC(=O)O)cn1)c1ccc(-c2ccc(C(=O)N(C)C)cc2)cc1 (racemic)",
    "Class Name": 1.0
  },
  {
    "Compound": "CC(C)CC(Nc1ccc(C(=O)NCCC(=O)O)cn1)c1ccc(-c2ccc(C(F)(F)F)cn2)cc1 (racemic)",
    "Class Name": 0.0
  },
  {
    "Compound": "Cc1cc(NC(CC(C)C)c2ccc(C(=O)NCCC(=O)O)cn2)cnc1-c1ccc(Cl)cc1 (single isomer, unassigned; isomer 1)",
    "Class Name": 0.0
  }
]

**Q:** In plain terms: is recorded Kb at least 200 nM for CCCC(Nc1ncc(C(=O)NCCC(=O)O)cn1)c1ccc(-c2ccc(C(F)(F)F)cc2)cc1 (stereo not shown) ?
**A:** 1.0

**Q:** Does the compound Cc1ccc(-c2ccc(C(CC(C)C)Nc3ccc(C(=O)NCCC(=O)O)cn3)cc2)cn1 (racemic) have recorded Kb that is 200 nM or more?
**A:** 1.0

**Q:** API: above_or_equal(metric=Kb, cutoff=200 nM) for item CC(C)C[C@H](Nc1ccc(C(=O)NCCC(=O)O)cn1)c1ccc(-c2ccc(C(F)(F)F)cn2)cc1
**A:** 0.0

**Q:** Hello, I need to know if CCCC(Nc1ccc(C(=O)NCCC(=O)O)cn1)c1ccc(-c2ccc(C(F)(F)F)cc2)cc1 (racemic) [Example 1.7] has measured Kb not below 200 nM. Thanks!
**A:** 0.0

* * *

Here, each record is paired with measured Kb data.
Test Target: human glucagon receptor (Homo sapiens, UniProt P47871)
Construct: expressed in transfected cells; host or cells: CHO-K1 cells, stably transfected
Test Method Notes: Glucagon cAMP assay (Cisbio cAMP detection); note: 100 pM glucagon challenge
Format: cell-based
// return numeric value only (unit: nM, not printed)

**Q:** Please look at this molecule and report its Kb: CC(C)CC(Nc1ccc(-c2ccc(C(F)(F)F)cc2)cc1)c1ccc(C(=O)NCCC(=O)O)cn1 (racemic) [Example 2.4]
**A:** 300

**Q:** State its Kb: Cc1cc(NC(CC(C)C)c2ccc(C(=O)NCCC(=O)O)cn2)cnc1-c1ccc(C(F)(F)F)cc1 (racemic) [Example 2.8]
**A:** 130

**Q:** Provide Kb value for the following molecule: CC(C)CC(Nc1ccc(-c2ccc(C(F)(F)F)cc2)nc1)c1ccc(C(=O)NCCC(=O)O)cn1 (racemic) [Example 2.7]
**A:** 280

**Q:** Look up and state reported Kb for CCC(Nc1ccc(C(=O)NCCC(=O)O)cn1)c1ccc(-c2ccc(C(F)(F)F)cc2)cc1 (single isomer, unassigned; isomer 1) [Example 1.12]
**A:** 560

**Q:** Please give measured Kb of the following entry: Cc1cc(NC(CC(C)C)c2ccc(C(=O)NCCC(=O)O)cn2)cc(C)c1-c1ccc(C(F)(F)F)cc1 (single isomer, unassigned; isomer 1) [Example 2.2]
**A:** 54

**Q:** Identify the reported Kb for the following entry. CC(C)CC(Nc1ccc(C(=O)N(C)CCC(=O)O)cn1)c1ccc(-c2ccc(C(F)(F)F)cc2)cc1 (racemic) [Example 1.23]
**A:** 300

**Q:** For the molecule CC(C)CC(Nc1ccc(C(=O)NCCC(=O)O)cn1)c1ccc(-c2ccc(Cl)cc2)cc1 (racemic) [Example 1.53] , give its reported Kb.
**A:** 46
